test system: K562; assay: NCI tumour cell line growth inhibition, 48 h
Calls of active or inactive are those of the source. No stated cut-off is given here; in the data, active = GI50 up to about 1.1 µM and inactive = higher.
Possible outcomes: active, inactive

* O=[N+]([O-])c1cccc(C2N3CCCCC3[C@@H]3c4[nH]c5ccccc5c4CCN23)c1 (stereo not given in full) | inactive
* Cc1nc2ccc(S(=O)(=O)Nc3ccccn3)cc2c(=O)n1NS(=O)(=O)c1ccccn1 | inactive
* O/N=C1/C(=C/c2ccc(Cl)cc2)CCCC1C(NO)c1ccc(Cl)cc1 (stereo not given) | inactive
* C=C(C)C1CC/C(C)=C/CCC2(C)OC2CC/C(CO)=C\C1O (stereo not given) | inactive
* O=c1[nH]nc(Cc2ccc(Cl)cc2)n1O | inactive
* CC(=O)Oc1ccc(/C=C/C(=O)NCCOC(=O)/C=C/c2ccc(OC(C)=O)c(OC(C)=O)c2)cc1OC(C)=O | inactive
* CCC1CN2CCc3c([nH]c4ccccc34)[C@@](C(=O)OC)(c3cc4c(cc3OC)N(C)C3C(O)(C(=O)OC)C(C(=O)OC)C5(CC)C=CCN6CCC43C65)C[C@@H](C2)[C@@H]1C(C)(C)C (stereo not given in full) | active
* Nc1ncnc2c1ncn2CC(O)C(=O)O (stereo not given) | inactive
* c1ccc(C2=NN3CN(N2)c2ccccc2OCCCOc2ccccc23)cc1 | inactive
* CSc1nnnc2ccccc12 | inactive
* O=CNc1ccc(S(=O)(=O)c2ccc(NC=O)cc2)cc1 | inactive
* COC(=O)c1cc(C(=CCC[C@H]2CC[C@@]3(C)C(CCC4C3CC[C@@]3(C)C4CC[C@@H]3C(C)CCCC(C)C)C2)c2cc(Cl)c(O)c(C(=O)OC)c2)cc(Cl)c1O (stereo not given in full) | inactive
* COc1cc2c(cc1OC)C(SC)C(=O)N(Cc1cccc(OC)c1OC)CC2 (stereo not given) | active
* CC1=CC(=O)N2[C@H](OC[C@@H]2C(C)C)O1 | inactive
* Cc1nc(Nc2ccc(Cl)cc2)sc1C(=O)NNC(=O)C(=O)NN | inactive
* COC(=O)C12OC3CO[Si](C(C)C)(C(C)C)O[Si](C(C)C)(C(C)C)OC3C1Oc1nc(=O)ccn12 (stereo not given) | inactive
* COc1ccc(Oc2ccccc2N)cc1 | inactive
* O=c1cc(C(F)(F)F)c2cc3c(cc2o1)NCCC3 | inactive
* CCCC(CC)c1cc(O)c(O)cc1C(CC)CCC (stereo not given) | inactive
* CC(=O)OCC1OC(N2C(=O)CC(N)=Nc3ccccc32)C(OC(C)=O)C(OC(C)=O)C1OC(C)=O (stereo not given) | inactive

---

Consider the following compounds and their measured GI50 readings.
system: OVCAR-4; experiment: NCI tumour cell line growth inhibition, 48 h
Activity calls are given as the source filed them. Cut-off read from the data, not from the text of the source: active = GI50 up to about 1.1 µM and inactive = higher.
value.kind: GI50

• COc1cc(/C=C\c2ccc(O)cc2)cc(OC)c1OC = 8.97 µM (inactive)
• Cc1nc2ccc(S(=O)(=O)Nc3ccccn3)cc2c(=O)n1NS(=O)(=O)c1ccccn1 = > 100 µM (inactive)
• Fc1ccc(-c2sc(-c3ccsc3)cc2Cc2ccsc2)cc1 = > 10 µM (inactive)
• CSc1ccc2c(cc1=O)[C@@H](NC(=O)c1ccc([N+](=O)[O-])cc1)CCc1cc(O)c(O)c(O)c1-2 = 39.8 µM (inactive)
• c1nc(OCC2CCCCC2)c2nc[nH]c2n1 = > 100 µM (inactive)
• [O-]c1c[n+](CCCC[n+]2cc([O-])on2)no1 = > 100 µM (inactive)
• COc1cc(/C=C2\C(=O)N(C(=O)c3ccc(NC(C)=O)cc3)N=C2C)ccc1O = > 100 µM (inactive)
• O=c1c2cc(S(=O)(=O)Nc3ccccc3Cl)ccc2ncn1NS(=O)(=O)c1ccc(Br)cc1 = > 37.5 µM (inactive)
• CC(=O)OCCN1c2ccccc2Sc2cnccc21 = > 10 µM (inactive)
• COC(=O)/C=C\C(C#N)(C#N)/N=C/c1ccc(C)s1 = 3.78 µM (inactive)
• CC(C)(C)c1cc(C(=O)O)c2c(c1)C(=O)OC2(c1ccccc1)c1ccccc1C(=O)O (configuration not stated) = 78.3 µM (inactive)
• CC(=O)C1C(=O)C(=O)N(c2cccc([N+](=O)[O-])c2)C1=O (configuration not stated) = > 100 µM (inactive)
• COc1ccc(C=C2C(C)=NN(c3cccc(Cl)c3)C23C(Cl)C(=O)N3c2nc3ccccc3s2)cc1 (configuration not stated) = 23.9 µM (inactive)
• CCCC(CC)c1cc(O)c(O)cc1C(CC)CCC (configuration not stated) = > 10 µM (inactive)
• N#CC[N+]1(Cc2ccccn2)CCCC1.O=S(=O)([O-])c1ccccc1 = > 100 µM (inactive)
• CN(C)CCOc1cccc2c1C(=O)c1ccccc1C2=O = 6.14 µM (inactive)
• COC(=O)c1c2c(cc3c1CC1(Cc4cc5c(cc4C1)CCCC5)C3)CCCC2 = > 100 µM (inactive)
• O=C1C(Cl)=CC2(C=C1Cl)CCNC1=C2C(=O)c2nc[nH]c2C1=O = 58.7 µM (inactive)
• O=CNc1ccc(S(=O)(=O)c2ccc(NC=O)cc2)cc1 = > 100 µM (inactive)
• Cc1cc(C)n(C(=O)CSc2nc3ccc(I)cc3c(=O)n2Cc2ccccc2)n1 = 35.1 µM (inactive)
• CCOC(=O)c1cnc2sc3ccc4ccccc4c3n2c1=O = 38.9 µM (inactive)
• Cc1ccc(-c2cc(=S)n(-c3ccccc3)c3[nH]c(=S)n(-c4ccccc4)c(=N)c23)cc1 = > 100 µM (inactive)

---

system: TK-10; experiment: NCI tumour cell line growth inhibition, 48 h
Active and inactive are the calls of the source. No stated cut-off is given here; in the data, active = GI50 up to about 1.1 µM and inactive = higher. Where a SMILES comes first, the peptide text is derived from it. [ ]: non-standard residue; d: D form. The star is where a group is joined. Phe(4-NO2) = N[CH](Cc1ccc([N+](=O)[O-])cc1)C(=O)O; Boc = CC(C)(C)OC(=O)*; OtBu = CC(C)(C)O*
Consider the following compounds and their measured GI50 readings.
value.kind: GI50

* O=C(Nc1ccc([N+](=O)[O-])cc1)Nn1cnnc1 | 42.5 µM (inactive)
* COC(=O)[C@@]12C3=NO[C@]1(C(=O)OC)C(O[Si](C)(C)C(C)(C)C)[C@H]1OC(C)(C)O[C@H]1[C@@H]2C(OCc1ccccc1)CC3 (stereo partly drawn) | 84.1 µM (inactive)
* CC(C)(C)c1cc(C(=O)O)c2c(c1)C(=O)OC2(c1ccccc1)c1ccccc1C(=O)O (stereo not drawn) | > 100 µM (inactive)
* CC(=O)NC1C(OCc2ccccc2)OC(COC(=O)CCCCCNc2ccc([N+](=O)[O-])c3[nH]c4ccc(O)cc4c(=O)c23)C(O)C1OC(C)C(=O)N[C@@H](C)C(=O)N[C@H](CCC(=O)OCc1ccccc1)C(N)=O (stereo partly drawn) | 3.06 µM (inactive)
* COC(=O)c1cc(C(=CCC[C@H]2CC[C@@]3(C)C(CCC4C3CC[C@@]3(C)C4CC[C@@H]3C(C)CCCC(C)C)C2)c2cc(Cl)c(O)c(C(=O)OC)c2)cc(Cl)c1O (stereo partly drawn) | > 10 µM (inactive)
* C=CCNC1=NC(=O)C(CC(=O)Nc2ccc([N+](=O)[O-])cc2[N+](=O)[O-])S1 (stereo not drawn) | 98.6 µM (inactive)
* CCCCCCCCCCCCNC(C)=O | 13.7 µM (inactive)
* CCOC(=O)c1cnc2sc3ccc4ccccc4c3n2c1=O | 62.5 µM (inactive)
* CC(C)(CO)CNc1nc(N)nc(Cl)c1C=O | 46.9 µM (inactive)
* N#C/N=C(\N)NCCO | > 100 µM (inactive)
* Cc1cn(C2CC(ON3C(=O)c4ccccc4C3=O)C(CO)O2)c(=O)[nH]c1=O (stereo not drawn) | > 10 µM (inactive)
* Cc1ccc(-c2cc(=S)n(-c3ccccc3)c3[nH]c(=S)n(-c4ccccc4)c(=N)c23)cc1 | > 100 µM (inactive)
* CC(=O)OC(C)c1cc2c(s1)C(=O)c1c(C(C)OC(C)=O)csc1C2=O (stereo not drawn) | 2.29 µM (inactive)
* c1ccc(OCc2nnc3n2N=C(c2ccccc2)CS3)cc1 | > 100 µM (inactive)
* COC(=O)C(Cc1ccc([N+](=O)[O-])cc1)NC(=O)C(CC(=O)OC(C)(C)C)NC(=O)OC(C)(C)C (stereo not drawn) (Boc-Asp(OtBu)-[Phe(4-NO2)]-OMe; configuration not given here) | > 100 µM (inactive)
* S=C(Nc1ccc(/N=N/c2ccccc2)cc1)SCc1ccccc1 | 12.5 µM (inactive)
* Cc1ccc(S(=O)(=O)NCCN(CCNS(=O)(=O)c2ccc(C)cc2)S(=O)(=O)c2ccc(C)cc2)cc1 | 41.4 µM (inactive)
* COc1ccc(-c2nc(N)n(C)c2SSc2c(-c3ccc(OC)cc3)nc(N)n2C)cc1 | 14.5 µM (inactive)
